TEST_PROTOCOL: MMV: MTT Cytotoxicity Assay Day 7 pi of Assay #6 (compound washed out Day 1 pi), U87-CD4-CCR5 cells, % cell death @ 5mM compound
Assay type: toxicity, cell-based
CONDITION_INFO: human, u87-cd4-ccr5, 5000 µM
Returns: string. Value is YES if measured % Cell Death is below 20, and NO if it is greater than or equal to it.

Please review the entries below; each comes with its answer.
[[record]]
molecule = "CCCC(c1nnnn1C1CCCCC1)N1CCN(C(=O)c2ccco2)CC1.Cl (stereo not given)"
qualitative_label = "YES"

[[record]]
molecule = "Cc1ccc(OCCCCCCNCCO)c(C)c1"
qualitative_label = "NO"

[[record]]
molecule = "CCN(CC)CCNc1ccnc2cc3ccccc3cc12.O=P(O)(O)O"
qualitative_label = "YES"

[[record]]
molecule = "Cc1cccc(-n2ncc3c(O)nc(-n4nc(C)cc4NC(=O)c4cc5ccccc5o4)nc32)c1"
qualitative_label = "NO"


Now turn to the next molecule.
Say whether its % Cell Death is strictly beneath 20. Entry: COc1ccc(C2=C(c3ccc(OC)cc3)C3(c4ccccc4)C(=O)C2(c2ccccc2)C2C(=O)N(c4ccc(C)cc4)C(=O)C23)cc1 (stereo not given) YES
